target or system: Cytochrome P450 2C19 (Homo sapiens)
method: Cytochrome P450 Family 2 Subfamily C Member 19 (CYP2C19) small molecule antagonists: luciferase reporter qHTS assay (AID 1671197); also: nearly all actives have a fitted effect of over 65% in size
assay context: P450-Glo CYP2C19 enzyme, luciferin luminescence, 1 h; series mostly up to 115 µM
Results filed as inconclusive are left out. Active and inactive are the calls of the source. Calls follow the shape of the dose curve; as a rule, active = well fitted inhibition curve with a large enough effect in the repeat runs; inconclusive = weak or mixed curves; inactive = no such curve, though single readings can be large or run the other way.
Response enum: active, inactive

molecule=Cc1cn([C@@H]2O[C@H](CO)[C@@H](O)[C@@H]2F)c(=O)[nH]c1=O group=inactive
molecule=N#Cc1ccc(C(c2ccc(C#N)cc2)n2cncn2)cc1 group=active
molecule=CCCCOc1cc(C(=O)NCCN(CC)CC)c2ccccc2n1 group=active
molecule="CN(CC1(C)CCCO1)S(=O)(=O)c1ccc(Cl)c(S(N)(=O)=O)c1 (stereo unspecified)" group=inactive

Input: Any idea what this test logged for Nc1ccc(Oc2ccc(N)c(N)c2)cc1 ?
Output: active

Input: Any idea what this test logged for CCCCCCCCCC#N ?
Output: inactive

Input: Any idea what this test logged for CCOc1ccc(NC(N)=O)cc1 ?
Output: inactive

Input: Any idea what this test logged for O=C1C=CC(=O)O1 ?
Output: inactive

Input: Any idea what this test logged for COc1cc2c(cc1N)oc1ccccc12 ?
Output: active

Input: Any idea what this test logged for CC(C)Nc1nc(N)nc(Cl)n1 ?
Output: inactive

Input: Any idea what this test logged for CC/C=C\CCOC(=O)C(C)C ?
Output: inactive

----------
method: qHTS assay to test for compound auto fluorescence at 590 nm (red) in HepG2 cells (AID 720674); also: % is scaled to controls: 0 for no effect and ±100 for the full control effect
assay context: HepG2 autofluorescence, red 540/590 nm, 1 h; series mostly up to 91.3 µM
Active and inactive are the calls of the source. The call rests on the fitted dose curve; in most records, active means well fitted curve in the direction sought with a large enough effect in the repeat runs; inconclusive means weak or mixed curves; inactive means flat fitted curve, though single readings scatter.
recorded endpoint: fluorescence, relative to Rose Bengal

compound_string=CCN(O)CC result=inactive
compound_string=NS(=O)(=O)c1cc(-c2nn[nH]n2)c(NCc2cccs2)cc1Cl result=inactive
compound_string=OCC(CBr)(CBr)CBr result=inactive
compound_string=COc1ccccc1N1CCN(CCCNc2cc(=O)n(C)c(=O)n2C)CC1 result=inactive
compound_string=CCC(=O)c1ccc2c(c1)N(CCCN(C)C)c1ccccc1S2 result=inactive
compound_string=CC(C)NC[C@@H](O)COc1cccc2ccccc12 result=inactive

Reported fluorescence, relative to Rose Bengal of CCN(CC)CCOc1ccc(Cc2ccccc2)cc1 : inactive

Reported fluorescence, relative to Rose Bengal of FC(F)(F)c1ccccc1 : inactive

Reported fluorescence, relative to Rose Bengal of CCOC(=O)CS : inactive

Reported fluorescence, relative to Rose Bengal of CCCCCCCCCCCCOCCOS(=O)(=O)O : inactive

Reported fluorescence, relative to Rose Bengal of CO[C@@]1(NC(=O)CSCC#N)C(=O)N2C(C(=O)O)=C(CSc3nnnn3C)CS[C@@H]21 : inactive

Reported fluorescence, relative to Rose Bengal of COC(=O)c1ccc2cc(C(=O)OC)ccc2c1 : 0.064% [at 18.6 µM] (inactive)

Reported fluorescence, relative to Rose Bengal of CS(=O)(=O)c1ccc([C@@H](O)[C@@H](CF)NC(=O)C(Cl)Cl)cc1 : -0.165% [at 18.6 µM] (inactive)

----------
target or system: Aromatase (Homo sapiens)
method: qHTS assay to identify aromatase inhibitors (AID 743083); also: % is scaled to controls: 0 for no effect and ±100 for the full control effect; nearly all actives have a fitted effect of over 55% in size
assay context: MCF-7 aro ERE, testosterone-driven ERE luciferase, 24 h; series mostly up to 70.3 µM
Results filed as inconclusive are left out. Active and inactive are the calls of the source. Calls follow the shape of the dose curve; as a rule, active = well fitted inhibition curve with a large enough effect in the repeat runs; inconclusive = weak or mixed curves; inactive = no such curve, though single readings can be large or run the other way.
recorded endpoint: outcome

Known outcome results, listed for orientation:
compound=OC[C@H]1O[C@@H](O[C@H]2[C@H](O)[C@@H](O)[C@H](O)O[C@@H]2CO)[C@H](O)[C@@H](O)[C@H]1O target_or_system="Aromatase (Homo sapiens)" result=inactive
compound=CC(C)OC(C)C target_or_system="Aromatase (Homo sapiens)" result=inactive
compound="CC1=C(O)C(=O)OC1C (stereo not given)" target_or_system="Aromatase (Homo sapiens)" result=inactive
compound=CN(C)Cc1ccccc1 target_or_system="Aromatase (Homo sapiens)" result=inactive
compound=O=S(=O)(O)C(F)(F)F target_or_system="Aromatase (Homo sapiens)" result=inactive

Next compound, outcome to be filled in.
Entry C=O , Aromatase (Homo sapiens) data, outcome value: inactive

----------
target or system: Estrogen receptor (Homo sapiens) (UniProt P03372)
Sequence (P03372 whole entry, looked up): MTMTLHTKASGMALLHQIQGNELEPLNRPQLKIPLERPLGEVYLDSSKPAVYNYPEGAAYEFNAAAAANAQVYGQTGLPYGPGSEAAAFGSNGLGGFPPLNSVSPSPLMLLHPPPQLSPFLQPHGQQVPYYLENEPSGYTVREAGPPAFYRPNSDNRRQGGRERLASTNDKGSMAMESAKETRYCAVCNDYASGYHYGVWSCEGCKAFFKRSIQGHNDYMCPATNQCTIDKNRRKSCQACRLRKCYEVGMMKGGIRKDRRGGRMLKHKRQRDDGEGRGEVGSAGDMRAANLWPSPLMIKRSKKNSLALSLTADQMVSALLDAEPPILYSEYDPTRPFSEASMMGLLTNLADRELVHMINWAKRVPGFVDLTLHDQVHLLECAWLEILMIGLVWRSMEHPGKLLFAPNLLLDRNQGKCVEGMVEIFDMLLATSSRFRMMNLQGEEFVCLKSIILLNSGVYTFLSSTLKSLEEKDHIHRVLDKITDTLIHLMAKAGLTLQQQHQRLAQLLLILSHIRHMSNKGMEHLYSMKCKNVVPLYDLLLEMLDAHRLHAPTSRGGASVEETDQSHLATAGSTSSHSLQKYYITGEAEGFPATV
method: qHTS assay to identify small molecule antagonists of the estrogen receptor alpha (ER-alpha) signaling pathway using the BG1 cell line in the presence of 0.1 nM 17-beta-estradiol (AID 1259244); also: nearly all actives have a fitted effect of over 50% in size
assay context: VM7Luc4E2 (BG1) ERE-luciferase, antagonist mode, 0.1 nM E2, 22 h; series mostly up to 92.4 µM
Results filed as inconclusive are left out. Activity calls are given as the source filed them. Calls follow the shape of the dose curve; as a rule, active = well fitted inhibition curve with a large enough effect in the repeat runs; inconclusive = weak or mixed curves; inactive = no such curve, though single readings can be large or run the other way.
Response enum: active, inactive

Some solved entries appear below for comparison.
molecule=CCCc1c2oc(C(=O)O)cc(=O)c2cc2c(=O)cc(C(=O)O)n(CC)c12 group=inactive
molecule=CCCCN1C[C@H](O)[C@@H](O)[C@H](O)[C@H]1CO group=inactive
molecule=Cc1ccc(C)c(N)c1 group=inactive
molecule=CC1=C(CC(=O)O)c2cc(F)ccc2/C1=C\c1ccc(S(C)(=O)=O)cc1 group=inactive
molecule=OCc1c2ccccc2cc2ccccc12 group=inactive
molecule=CS(=O)(=O)c1ccc([C@@H](O)[C@@H](CF)NC(=O)C(Cl)Cl)cc1 group=inactive
molecule=CCCCCCC group=inactive
molecule=CC(C)CC(=O)OCc1ccccc1 group=inactive

Input: Any idea what this test logged for CCC/C=C/CO ?
Output: inactive

Input: Any idea what this test logged for COc1ccccc1N1CCN(CCCNc2cc(=O)n(C)c(=O)n2C)CC1 ?
Output: inactive

Input: Any idea what this test logged for CCN(CC)CC1CCCCN1CC(=O)N1c2ccccc2C(=O)Nc2cccnc21 (stereo not drawn) ?
Output: inactive

Input: Any idea what this test logged for Cc1nc(N)nc(N)c1-c1ccc(Cl)c(Cl)c1 ?
Output: active

Input: Any idea what this test logged for Cc1cc(S(=O)(=O)O)c(N)cc1Cl ?
Output: inactive

Input: Any idea what this test logged for NNS(=O)(=O)c1ccc(Oc2ccc(S(=O)(=O)NN)cc2)cc1 ?
Output: inactive

Input: Any idea what this test logged for CC(C)OC(C)C ?
Output: inactive

Input: Any idea what this test logged for OCCN(CCO)CCN(CCO)CCO ?
Output: inactive

Input: Any idea what this test logged for CCOc1ccc2nc(N)sc2c1 ?
Output: inactive

Input: Any idea what this test logged for NCCCN1CCN(CCCN)CC1 ?
Output: inactive

Input: Any idea what this test logged for COC(=O)C(C)O (stereo not drawn) ?
Output: inactive

Input: Any idea what this test logged for CCCOCCC ?
Output: inactive

Input: Any idea what this test logged for COC(=O)N[C@H](C(=O)N[C@@H](Cc1ccccc1)[C@@H](O)CN(Cc1ccc(-c2ccccn2)cc1)NC(=O)[C@@H](NC(=O)OC)C(C)(C)C)C(C)(C)C ?
Output: inactive

Input: Any idea what this test logged for Cc1c[nH]c(=S)[nH]c1=O ?
Output: inactive

Input: Any idea what this test logged for COc1ccc(Nc2ccc(OC)cc2)cc1 ?
Output: inactive

Input: Any idea what this test logged for CCN(CC)CCNC(=O)COc1ccc(Cl)cc1 ?
Output: inactive

Input: Any idea what this test logged for CCOc1ccc(OCC)c(Cl)c1 ?
Output: inactive

Input: Any idea what this test logged for CC(CNC1CCCCC1)OC(=O)c1ccccc1 (stereo not drawn) ?
Output: inactive

Input: Any idea what this test logged for O=C(CCCl)NCc1ccccc1 ?
Output: inactive

Input: Any idea what this test logged for CCCCCCCCCCCCOCCOS(=O)(=O)O ?
Output: inactive

----------
Recorded viability change, negative = cytotoxic values for a group of molecules are listed next.
method: qHTS assay to identify small molecule antagonists of the sonic hedgehog signaling (Shh) pathway - cell viability counter screen (AID 1259367); also: % is scaled to controls: 0 for no effect and ±100 for the full control effect; nearly all actives have a fitted effect of over 55% in size
assay context: NIH/3T3 Gli1-Luc viability, CellTiter-Fluor, 24 h; series mostly up to 92.4 µM
Inconclusive results are not listed. Active and inactive are the calls of the source. Calls come from the whole dose curve; as a rule, active = well fitted cell-killing curve with a large enough effect in the repeat runs; inconclusive = weak or mixed curves, or effect the other way; inactive = no such curve, though single readings can be large or run the other way.

Known viability change, negative = cytotoxic results, listed for orientation:
compound_string=O=C(O)CN(CCN(CC(=O)O)CC(=O)O)CCN(CC(=O)O)CC(=O)O recorded_endpoint="viability change, negative = cytotoxic" result="-7.04% [at 19 µM] (inactive)"
compound_string=COC(=O)c1ccc2cc(C(=O)OC)ccc2c1 recorded_endpoint="viability change, negative = cytotoxic" result="-4.66% [at 19 µM] (inactive)"
compound_string=O=c1oc2c(O)c(O)cc3c(=O)oc4c(O)c(O)cc1c4c23 recorded_endpoint="viability change, negative = cytotoxic" result="1.3% [at 19 µM] (inactive)"

Next molecule, viability change, negative = cytotoxic to be filled in.
Reported viability change, negative = cytotoxic of C[C@@H]1CN(c2c(F)c(N)c3c(=O)c(C(=O)O)cn(C4CC4)c3c2F)C[C@H](C)N1 : 0.364% [at 19 µM] (inactive)
